Reference source: patent US20230183239A1

- assayed.system: ENPP1 (Homo sapiens)
- Sequence (P22413 1-925): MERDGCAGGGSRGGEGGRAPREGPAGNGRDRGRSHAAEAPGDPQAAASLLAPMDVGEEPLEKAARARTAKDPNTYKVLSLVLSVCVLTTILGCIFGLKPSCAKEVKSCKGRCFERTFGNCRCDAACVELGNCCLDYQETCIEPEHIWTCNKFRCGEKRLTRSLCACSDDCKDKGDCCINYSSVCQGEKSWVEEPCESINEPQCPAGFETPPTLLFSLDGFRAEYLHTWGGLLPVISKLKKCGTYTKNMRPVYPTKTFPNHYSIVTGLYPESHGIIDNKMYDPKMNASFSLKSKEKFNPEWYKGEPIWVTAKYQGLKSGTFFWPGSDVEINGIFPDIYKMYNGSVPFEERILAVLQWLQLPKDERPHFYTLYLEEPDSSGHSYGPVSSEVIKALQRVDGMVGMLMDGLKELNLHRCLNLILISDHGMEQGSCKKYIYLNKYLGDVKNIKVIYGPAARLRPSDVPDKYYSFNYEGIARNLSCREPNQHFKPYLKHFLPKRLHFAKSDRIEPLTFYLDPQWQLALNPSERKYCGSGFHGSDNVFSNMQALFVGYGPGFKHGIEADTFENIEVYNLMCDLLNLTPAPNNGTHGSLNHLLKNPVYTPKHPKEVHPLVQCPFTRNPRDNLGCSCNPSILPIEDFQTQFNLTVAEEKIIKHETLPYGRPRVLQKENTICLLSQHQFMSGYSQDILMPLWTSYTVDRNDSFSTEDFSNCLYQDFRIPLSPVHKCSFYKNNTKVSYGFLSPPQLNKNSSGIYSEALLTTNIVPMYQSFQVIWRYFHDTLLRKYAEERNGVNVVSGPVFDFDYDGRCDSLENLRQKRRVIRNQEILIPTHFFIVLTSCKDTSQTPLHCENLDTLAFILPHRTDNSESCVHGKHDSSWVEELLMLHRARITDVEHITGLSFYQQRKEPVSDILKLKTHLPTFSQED
- assay.summary: ENPP1 enzyme assay with AMP-pNP substrate (hydrolysis of ATP analog)
- Assay type: biochemical
- setup.conditions: AMP-pNP substrate (ATP analog); Ki from IC50 by Cheng-Prusoff; read-out: ENPP1 Inhibition _AMP-pNP: Ki
Measured Ki of individual entries
recorded.metric: Ki

> print(dat)
                                    compound  recorded.metric     measured
 1  N#Cc1cnc2ccccc2c1N1CCC2(CC1)CCN(S(N)(=O)=O)C2 [Example 167]               Ki  0.1 to 1 µM
 2  COc1cc2ncnc(N3CCC(CCC(=O)NO)CC3)c2cc1OC [Example 159]               Ki     < 0.1 µM
 3  COc1cc2ncnc(Nc3ccc(NS(N)(=O)=O)cc3)c2cc1OC [Example 114]               Ki       > 1 µM
 4  Cn1cnc2ncnc(N3CCC(CCNS(N)(=O)=O)CC3)c21 [Example 22]               Ki       > 1 µM
 5  NS(=O)(=O)c1ccc(Oc2ccnc3[nH]c(=O)ccc23)cc1 [Example 352]               Ki  0.1 to 1 µM
 6  COc1cc2ncnc(-c3ccc(CCNS(N)(=O)=O)cc3)c2cc1OC [Example 145]               Ki  0.1 to 1 µM
 7  COc1ccc2c(Oc3ccc4c(c3)CCN4S(N)(=O)=O)ccnc2c1 [Example 404]               Ki  0.1 to 1 µM
 8  COc1cc2ncnc(-c3ccc(CNS(N)(=O)=O)cc3)c2cc1OC [Example 144]               Ki  0.1 to 1 µM
 9  COc1ccc2c(-c3ccc(CNS(N)(=O)=O)cc3)c(F)cnc2c1 [Example 381]               Ki  0.1 to 1 µM
10  COc1ccc2c(-c3ccc(CCNS(N)(=O)=O)cc3)ccnc2c1 [Example 403]               Ki       > 1 µM
11  COc1ccc2c(N3CCC4(CC3)CCN(S(N)(=O)=O)C4)ccnc2c1 [Example 363]               Ki  0.1 to 1 µM
12  COc1cc2ncnc(-c3ccc4c(c3)CC(NS(N)(=O)=O)C4)c2cc1OC (stereo not shown) [Example 122]               Ki  0.1 to 1 µM
13  COc1ccc2c(N3CCc4cc(NS(N)(=O)=O)ccc43)ncnc2c1 [Example 392]               Ki       > 1 µM
14  COc1cc2c(N3CCC(CCNS(N)(=O)=O)CC3)c(C#N)cnc2cn1 [Example 216]               Ki       > 1 µM
15  COc1ccc2c(-c3ccc4c(c3)CN(S(N)(=O)=O)C4)ccnc2c1 [Example 402]               Ki  0.1 to 1 µM
16  COc1ccc2ncnc(N3CCC(CCNS(N)(=O)=O)CC3)c2c1 [Example 199]               Ki  0.1 to 1 µM
17  COc1ccc2c(Oc3ccc(NS(N)(=O)=O)cc3)cc(C)nc2c1 [Example 397]               Ki  0.1 to 1 µM
18  COc1cc2ncc(C#N)c(-c3ccc(S(N)(=O)=O)cc3)c2cc1OC [Example 136]               Ki       > 1 µM
19  COc1cc2nccc(Oc3ccc(NS(=O)(=O)c4ccccc4)cc3)c2cc1OC [Example 86]               Ki  0.1 to 1 µM
